- System: HS 578T breast
- methodDescription: NCI-60 one-dose screen, 48 h (100 = growth as untreated, 0 = no growth, -100 = all killed)
- studyConditions: 10 µM unless noted
Compounds without any hit were thinned out: in the full panel of roughly 83,000, 20% have a hit.

chemicalString	growth / %
Clc1ccc(-c2csc(Nc3cccc(Nc4csc(-c5ccc(Cl)cc5)n4)c3)n2)cc1	73.4
Fc1ccc(-c2cc3nc(C(Cl)Cl)nc(-c4cccs4)n3n2)cc1	-5.63
COc1cc(O)c2c(c1)/C=C/C[C@H](O)[C@H](O)C(=O)/C=C\C[C@H](C)OC2=O	-26.4
Cc1ccc(NC(=O)c2cccc(CN3CCN(C)CC3)c2)cc1Oc1ccc(-c2[nH]nc3ncnc(N)c23)cc1	64.2
CNC(=O)c1cc(Oc2ccc3nc(NC(=O)c4cccc(C(F)(F)F)c4)sc3c2)ccn1	102
O=C(Nc1ccc(F)cc1)c1cc(-c2ccc(F)cc2F)ccc1O	6.19
Cc1cc(C(=O)Nc2ccc(SC#N)cc2)c(C)o1	112
CN1CCN(c2ccc(C(=O)Nc3cccc(-c4cn(-c5ccc(S(N)(=O)=O)cc5)nn4)c3)cc2C(F)(F)F)CC1	71
COc1cc(/C=C/C(=O)c2ccc(NC(=O)COc3cccc4cccnc34)cc2)cc(OC)c1OC	93.8

###

- Tested on: SK-OV-3 ovarian
- methodDescription: NCI-60 one-dose screen, 48 h (100 = growth as untreated, 0 = no growth, -100 = all killed)
- studyConditions: 10 µM unless noted
Compounds without any hit were thinned out: in the full panel of roughly 83,000, 20% have a hit.
Record rule met whenever growth is at 60% or higher; record rule not met when lower.

molecule	targetSystem	label
C=C(C)[C@@H]1CC[C@]2(COS(C)(=O)=O)CC[C@]3(C)[C@H](CC[C@@H]4[C@@]5(C)CCCNC(C)(C)[C@@H]5CC[C@]43C)[C@@H]12	SK-OV-3 ovarian	rule met
COc1cc(C(=O)c2cc(C(C)=O)c3c4ccccc4ccn23)cc(OC)c1OC	SK-OV-3 ovarian	rule not met
COc1ccc2c(C3=C(c4c[nH]c5ccccc45)C(=O)N(O)C3=O)coc2c1	SK-OV-3 ovarian	rule met
COc1ccc(/C=N\NC(=O)c2ccc3nc(-c4ccc(Br)cc4)[nH]c3c2)cc1	SK-OV-3 ovarian	rule met
CCOC(=O)C1=C(C)Nc2nc3ccccc3n2C1c1cccc(Br)c1 (centres undefined)	SK-OV-3 ovarian	rule met
COc1ccc(NC(=O)Cn2cc(CN3C(=O)c4ccc([N+](=O)[O-])cc4C3=O)nn2)cc1	SK-OV-3 ovarian	rule met
Nc1ccc(-c2nnc(SCc3ccc(O)c4ncccc34)o2)cc1	SK-OV-3 ovarian	rule not met
COc1ccc(-c2nc3cc(Cl)c(Cl)cc3n2CC(=O)N=Nc2c(O)[nH]c3ccc(Br)cc23)cc1	SK-OV-3 ovarian	rule not met
NNC(=O)c1sc2nc(-c3cnccn3)cc(-c3cccs3)c2c1N	SK-OV-3 ovarian	rule met

###

- System: KM12 colon
- methodDescription: NCI-60 one-dose screen, 48 h (100 = growth as untreated, 0 = no growth, -100 = all killed)
- studyConditions: 10 µM unless noted
- Procedure: Growth inhibition of the KM12 human tumor cell line is measured as a screen for anti-cancer activity. Cells are grown in 96 well plates and exposed to the test compound for 48 hours. Compounds are tested at a single concentration, which is 10^-5 M for most compounds. The reported endpoint is percent growth (GI% or GIPRCNT), where numbers from 0 - 100% represent growth inhibition, and numbers from -100% - 0 represent cell death. For example, a value of 40 represents 60% growth inhibition. […]
Compounds without any hit were thinned out: in the full panel of roughly 83,000, 20% have a hit.

molecule	unitAbbreviation	growth
CCCCCCNC(=O)Oc1ccc(/C(=C(/C)c2ccccc2)c2ccc(OCCN(C)C)cc2)cc1	%	66.2
CCOC(=O)C1=C(C)Nc2nnc(Nc3ccccc3)n2C1c1ccccc1 (stereo not drawn)	%	94.7
CCC(CC)N1C(=O)/C(=c2\sc3n(c2=O)C2C(NN=3)N(CC)C(=O)N2CC)c2ccccc21 (stereo not drawn)	%	14.2
NS(=O)(=O)c1ccc(Nc2nc(N/N=C/c3ccc([N+](=O)[O-])cc3)nc(Nc3ccccc3)n2)cc1	%	37.5
C=CCn1c(SCC(=O)Nc2cccc(C(=O)/C=C/c3ccc(C)cc3)c2)nc2ccccc2c1=O	%	74.5
CCc1ccc(NC(=O)N[C@@H](Cc2cccc(C)c2)C(=O)N[C@@H]2C(=O)N3CCC[C@H]3C(=O)N3CCCC[C@H]3C(=O)N[C@@H](CO)C(=O)N3C[C@H](C)C[C@H]3C(=O)O[C@H]2C)c(F)c1	%	37.6
C#C[C@]1(O)CC[C@H]2[C@@H]3CC=C4c5sc(Nc6cc(Cl)ccn6)nc5CC[C@]4(C)[C@H]3CC[C@@]21C	%	-0.602
C=CCn1c(SCC(=O)c2ccc(OC)cc2)nnc1-c1ccc(OC)cc1	%	97.7
CCN(CC)CCN1C(=O)c2c(c3c4cccnc4[nH]c3c3ccc4ccccc4c23)C1=O	%	81.8
CCOC(=O)/C(F)=C/C1CC1C1CCCCC1 (stereo not drawn)	%	104
CN1CCN(c2ccc3c(c2)nc(NNC(=O)c2ccncn2)c2cccn23)CC1	%	17.4
O=S(=O)(Nc1ccc(C2CC2)cc1)c1ccc(-c2cnc(C3CC3)o2)cc1	%	48.3
Cn1cc(-c2nn3cc(-c4cccnc4)nc3s2)c2ccccc21	%	29.6
COc1ccc(-c2cc(-c3ccc(Cl)cc3)nc3nc(N)nn23)cc1	%	99.7
COc1cc(/C=C/C(=O)c2ccc(NC(=O)COc3cccc4cccnc34)cc2)cc(OC)c1OC	%	85.8
Oc1ccc(CSc2nnc(-c3ccc(Oc4ccccc4)cc3)o2)c2cccnc12	%	9.88
N=c1c2cc(-c3ccccc3)oc2ncn1/N=C/c1ccccc1	%	59
COc1cc(/C=C/C(=O)c2ccc(NC(=O)CSc3nnc(-c4ccc5nc(-c6ccccc6)[nH]c5c4)o3)cc2)cc(OC)c1OC	%	90
